assayedTarget: Keap1 Kelch domain (321-609) / TAMRA-labeled 16mer NRF2 peptide (ETGE motif) (Homo sapiens, UniProt Q14145)
Construct: the Kelch domain (321-609) of Keap1 is used
Sequence (Q14145 321-609): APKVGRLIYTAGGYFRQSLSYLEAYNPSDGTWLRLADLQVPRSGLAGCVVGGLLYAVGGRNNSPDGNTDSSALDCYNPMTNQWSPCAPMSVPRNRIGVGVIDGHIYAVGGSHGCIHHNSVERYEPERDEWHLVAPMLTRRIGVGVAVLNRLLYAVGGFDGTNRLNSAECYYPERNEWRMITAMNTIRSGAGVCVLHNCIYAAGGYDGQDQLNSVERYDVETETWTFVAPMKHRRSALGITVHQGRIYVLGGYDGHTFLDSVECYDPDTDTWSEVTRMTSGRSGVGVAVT
experiment: NRF2-Keap1 FP Assay (Keap1 Kelch fluorescence polarization)
measurementParameters: 20 nM Keap1 (321-609), 8 nM Tamra labeled peptide
# maps each entry to its IC50

A selection of reference data follows.
1. CC(C)Oc1cccc(-c2cccc(-n3ncc(C(=O)O)c3C(F)(F)F)n2)c1 [Example 66] : 1000 to 10000 nM
2. CCn1cc([C@H]2C[C@@H]2c2c(C(=O)O)cnn2-c2cccc(-c3cccc(OC(C)C4CCCCC4)c3)c2)nn1 (mixture of isomers) [Example 192] : 10 to 100 nM
3. CC(Oc1cccc(-c2cccc(-n3ncc(C(=O)O)c3[C@@H]3C[C@H]3c3cn(C)nn3)c2)c1)C1CCCCC1 (some centres unmarked) [Example 163] : 100 to 1000 nM
4. C[C@@H]1CCC[C@H](C)N1C(=O)c1cccc(-c2cccc(-n3ncc(C(=O)O)c3C3CC3)c2)c1F [Example 21] : 10 to 100 nM

Now for a further molecule.
[in] // returns reported IC50 for input COC1CCCC(COc2cccc(-c3cccc(-n4ncc(C(=O)O)c4[C@H]4C[C@@H]4c4cn(C)nn4)c3)c2)C1 (mixture of isomers) [Example 178]
[out] 10 to 100 nM

Source: patent US10364256B2
